System: MS2 coat protein
Assay: apparent KD of MS2 coat protein; higher = weaker reporter binding
Conditions: Eterna round: R107; input ligand: arginine 13.2 mM
For each record, write down the corresponding apparent KD of MS2 coat protein.
Give bare numbers, in nM.

Below, each entry is followed by its recorded apparent KD of MS2 coat protein result.
INSERT INTO results (polymer_sequence, target, assay_endpoint, reported_measurement) VALUES
  ('ACGUCUCGAAAACUCGUAGUAACAAUAGAUACCAGUAGCGAGAGUUACCCUUGGCAGCUACAUGAGGAUCACCCAUGUACGAGGA [XTheo A #27]', 'MS2 coat protein', 'apparent KD of MS2 coat protein', 19.1),
  ('UCGUGGUCCGCAAGGACCGGGAGUUGCGAUACCAGCACGGUAACGUGCCCUUGGCAGCGCACAUGAGGAUCACCCAUGUGGUGUU [#1 Exclusion - Theophylline A Attempt #14 (HarryS)]', 'MS2 coat protein', 'apparent KD of MS2 coat protein', 40.9);

Let's switch to this sequence now.
Exercise: Form entry - test system: MS2 coat protein; read-out: apparent KD of MS2 coat protein; sequence: AUCGUACCUGAUGAUACCAGCAAUUGCUCGUAACAUGAGGAUCACCCAUGUGACCAGUGAUGCCCUUGGCAGCAUGGUCGGUGCA [Same State - Theophylline B (Freestyle 21)]
Key: 59.5

----------
Test system: MS2 coat protein
Test: apparent KD of MS2 coat protein; designed switch direction (-1 OFF switch, 1 ON switch): -1; higher = weaker reporter binding
Details: input ligand: none
Output yes for apparent KD of MS2 coat protein not less than 30 nM; output no otherwise.

Previously resolved entries follow.
INSERT INTO measurements (polymer_sequence, assigned_class) VALUES
  ('CACCGGUGAGACAACAUGAGGAUCACCCAUGUGAACAGCUCACAGGAUAUCCAGGCACGAAAGAAGGAGAAGGGUGGCUGACUC [Veuson] (Eterna round: R96, puzzle: Exclusion NG 3)', 'no'),
  ('UAUUUACAUGAGGAUCACCCAUGUCAGGAUAUGCGUCUAUCGUCGAAAGACGAUAGUCGCAGAAGGGACAAUAU [LRO-Excl01-22 mod derived from EliFisker 4.24] (Eterna round: R97, puzzle: Exclusion 1)', 'yes'),
  ('UAUUGGCUAGGAUAUCCGGCUGGCGACAUGAGGAUCACCCAUGUGGACUCUGGUUGUCUUGGAGAAGGAGCAUGCG [EX5 B.19] (Eterna round: R97, puzzle: Exclusion 5)', 'yes'),
  ('CAGCUGAAUGUGAGGAUAUGUCGAGCGAUAGCUCGAUAGAAGGCACAUGAGGAUCACCCAUGUCUCAACAGCUG [BmEx4/2-C4] (Eterna round: R97, puzzle: Brourd''s mod of Exclusion 4)', 'no'),
  ('AGGUCACAUGAGGAUCACCCAUGUCAGGAUAUCGUCACUGGAGCUUCGGCUCCAGUGACGAGAAGGGACAAUUA [E1/6-A1] (Eterna round: R97, puzzle: Exclusion 1)', 'yes'),
  ('GGGAAGAACCAACAAGUAUACAUGAGGAUCACCCAUGUUCCUAGUGGGUAUGUAAAGAUUAAGAGAGCUCGUCUUAU [AK-miRNA-r3-10] (Eterna round: R97, puzzle: Sensor, turn-off variant 1)', 'yes'),
  ('UUUUUGUAUGAAGGAUAUACUUAACAUGAGGAUCACCCAUGUGGUGUUGUGAGUGAGUGAGUUUAGUAGAAGGUCAAUUCUUUU [JMF''s solution 88] (Eterna round: R96, puzzle: Exclusion NG 2)', 'yes'),
  ('GGAGGACGAGCAGGAUAUUUUCACAUGAGGAUCACCCAUGUGUAUUCAGGGUAAUCUUCCGCCGAAAAGAAGGGUUCGGAAGAA [JL ViennaUCT Socedi mod 3] (Eterna round: R96, puzzle: Exclusion NG 2)', 'no');

From here, focus on the item given below.
Exercise: Record ACCUCACAUGAGGAUCACCCAUGUCAGGAUAUCUUUUAAAACACCAAUCGUGUCGCUGAGAGAAGGGACAUUAA [EX1 #23] (Eterna round: R97, puzzle: Exclusion 1) ; criterion: apparent KD of MS2 coat protein no lower than 30 nM. Met?
Key: no

----------
System: MS2 coat protein
Test: apparent KD of MS2 coat protein; designed switch direction (-1 OFF switch, 1 ON switch): -1; higher = weaker reporter binding
Conditions: input ligand: none
assay.endpoint: apparent KD of MS2 coat protein (nM)
One number for each entry, in nM.

INSERT INTO results (polymer_sequence, assay_endpoint, reported_measurement) VALUES
  ('CAGCUGAAUGUGAGGAUAUGUCUAGCUGCGGCUAGACAGAAGGCACAUGAGGAUCACCCAUGUCUCAACAGCUG [BmEx4/2-D3] (Eterna round: R97, puzzle: Brourd''s mod of Exclusion 4)', 'apparent KD of MS2 coat protein', 35.5),
  ('UUAAUUAAUGUAGGAUAUGCAAGGCGAACCUAAGCAGAAGGACAUGUGGAUCACCCAUGUAAUGCGGUCUGCGUACAGAUCGCU [salish99_ex1_NG1_001] (Eterna round: R96, puzzle: Exclusion NG 1)', 'apparent KD of MS2 coat protein', 1270),
  ('GGAUUACAUGAGGAUCACCCAUGUGAGGAUAUCCCGACAGGUUGCAGAGAACCUCGUAGGAGAAGGCACAGGCG [EX1 B.12] (Eterna round: R97, puzzle: Exclusion 1)', 'apparent KD of MS2 coat protein', 102);

// for each sequence in input: emit apparent KD of MS2 coat protein
1. UGUUGUCGCGCAGGAUAUGUAUGAGGAUCACCCAUAAGAGUAUAUUUACCAUGAGGAUCACCCAUGUAGAAGGGCGGGACAACA [pwkr exNG2 2xF5 1xFMN.11] (Eterna round: R96, puzzle: Exclusion NG 2)
2. CCGGUUGGCGCAGGAUAUACAUGAGGAUCACCCAUGUUCAUGAGCAUCAGCCAUGAGUUUUUGUUGUAGAAGGGUGGCCCGGCC (Eterna round: R96, puzzle: Exclusion NG 2)

Key:
[73.6, 23.5]

----------
For each record, write down the corresponding apparent KD of MS2 coat protein.
Test system: MS2 coat protein
Assay: apparent KD of MS2 coat protein; designed switch direction (-1 OFF switch, 1 ON switch): -1; higher = weaker reporter binding
Conditions: input ligand: FMN 200 uM
One number for each entry, in nM.

INSERT INTO results (polymer_sequence, target, reported_measurement) VALUES
  ('UUUCGGUCAGGAUAUCCCGUACUACUAGCCGCGACUUACGAGGAGAAGGGACAUGAGGAUCACCCAUGUGCGCU [Colors] (Eterna round: R97, puzzle: Exclusion 4)', 'MS2 coat protein', 16.2),
  ('UUUAAUUUAAUUAAGAUCACAUGAGGAUCACCCAUGUAUAUAUAGGAUAUCAGCUCGAUUAGAGCUGAGAAGGAUAUAUACAUA [ExNG3/4-A1] (Eterna round: R96, puzzle: Exclusion NG 3)', 'MS2 coat protein', 164),
  ('AUUGAAUGAAACCUCUAAUACAUGAGGAUCACCCAUGUUAUCGAGGAUAUGCAGAAUAGAUUAGAGCAGAAGGCGAAGUAAUAU [JR_ExcNG3_Sub024] (Eterna round: R96, puzzle: Exclusion NG 3)', 'MS2 coat protein', 17.7),
  ('UAUUAGCAAGCCAAUGGGUACAUGAGGAUCACCCAUGUGCUCGUCUUAUAAGGUACUGUGACGAAAGUCACGGUACC [mod--Eli10] (Eterna round: R97, puzzle: Sensor, turn-off variant 1)', 'MS2 coat protein', 16.7);

Let's switch to this sequence now.
Exercise: Requested read-out: apparent KD of MS2 coat protein. Entry: CGAAAGUUAGGAUAUGCCCGGAACGACAUGAGGAUCACCCAUGUUAGCAAGGGACCUGGCGCAGAAGGAACGGAUA [EX5 C.20] (Eterna round: R97, puzzle: Exclusion 5)
Key: 20.2

----------
For each record, write down the corresponding apparent KD of MS2 coat protein.
Test system: MS2 coat protein
Experiment: apparent KD of MS2 coat protein; higher = weaker reporter binding
Details: Eterna round: R107; input ligand: theophylline 2 mM
Answers are plain numbers, in nM.

INSERT INTO results (polymer_sequence, assay_endpoint, reported_measurement) VALUES
  ('AGCAACAAGUCGGCCGCCACUCAUUUAACAUGAGGAUCACCCAUGUGAAUAACAUGAUUGUAAUAGAGGACCGGGACAGUUGCAU [JR_SSTryptoB_Sub014]', 'apparent KD of MS2 coat protein', 103),
  ('GGGCGUGUGGUGCGGCGUGUUCCGCUCCGUCGAGGACCGGUACGGCCGCCACUCGACAUGAGGAUCACCCAUGUGCGAGCGCGCG [#1 Exclusion - Tryptophan A Attempt #8 (HarryS)]', 'apparent KD of MS2 coat protein', 11.7),
  ('GCCGCGGCCGCGAUACACAUGGGUGUGUAACGAGGACCGGUACGGCCGCCACUCGAGAUGGUGCACAUGAGGAUCACCCAUGUGC [Exclusion Tryp A GF15]', 'apparent KD of MS2 coat protein', 19.3),
  ('UGUACAUAAUUAGGUUACCUAUGUACAGAAGGAGCGUCGAUGACGACAGGUAGGUCGCUGUUAACAUGAGGAUCACCCAUGUACA [Arg A Ex t4]', 'apparent KD of MS2 coat protein', 57.3),
  ('AACAUGUGGAUCACCCAUGUAUGUUCUGAAGGAGCGCCACAUGAGGCAGGUAGGUCGCAGGUACAUGAGGAUCACCCAUGUGUCA [Exclusion Arginine A 4]', 'apparent KD of MS2 coat protein', 193);

Let's switch to this sequence now.
Exercise: Requested read-out: apparent KD of MS2 coat protein. Entry: AGGACGGCCGGAAGGAGCGGUACAUGAGGAUCACCCAUGUACCUCUGGGCAUCCGUAGUGUGCCAGGUAGGUCGCCGGUUGCGGG [Veatgema]
Key: 12.1

Hey, just so you know, these numbers are from the supplement of paper PMC9170038.
